- Test Target: murine SR-BI (Mus musculus, UniProt Q61009)
- Construct: expressed in transfected cells; host or cells: ldlA[mSR-BI]; (CHO ldlA7 derivative lacking the LDL receptor)
- Measurement Protocol: DiI-HDL uptake assay (primary assay)
- Assay type: cell-based
- Test Settings: read-out: IC50, DiI-HDL uptake
Test Readout: IC50 (nM)

Molecule | Unit Spec | Value Reported
COCC(=O)N1CCc2cc(-c3csc(NC(=O)c4cc(OC)cc(OC)c4)n3)ccc21 | nM | 2
COc1cc(OC)cc(C(=O)Nc2nc(-c3ccc4c(c3)CCN4C(=O)OC(C)(C)C)cs2)c1 [Boc carbamate] | nM | 0.9

###

- Test Target: SR-BI (Mus musculus)
- Measurement Protocol: 125I-HDL binding assay
- Set-up: expressed in transfected cells
- Test Settings: range; read-out: measured range of IC50
- Method: In a binding assay, ^125I-HDL binding to cells (4° C. or 37° C.) was measured for 2 h in the absence (total activity) or presence (nonspecific activity) of a 40-fold excess of unlabeled HDL. […]
pIC50: −log10 of the molar value.
Test Readout: pIC50

Molecule | Test Readout | Value Reported
COCC(=O)N1CCc2cc(-c3csc(NC(=O)c4cc(OC)cc(OC)c4)n3)ccc21 [Compound 137] | pIC50 | 8.22 to 9.03

###

- Test Target: murine SR-BI (Mus musculus)
- Construct: expressed in transfected cells; host or cells: ldlA[mSR-BI]; (CHO ldlA7 derivative lacking the LDL receptor)
- Measurement Protocol: Compound reversibility, cellular uptake of DiI from DiI-HDL
- Type: cell-based
- Test Settings: 1 hr preincubation, then 0 or 4 hr incubation in the absence of compound; read-out: IC50, reversibility test (DiI uptake)

Molecule Smiles | Unit Spec | IC50
COCC(=O)N1CCc2cc(-c3csc(NC(=O)c4cc(OC)cc(OC)c4)n3)ccc21 | nM | 315

###

- Test Target: UniProt:Q61009
- Sequence (Q61009 1-509): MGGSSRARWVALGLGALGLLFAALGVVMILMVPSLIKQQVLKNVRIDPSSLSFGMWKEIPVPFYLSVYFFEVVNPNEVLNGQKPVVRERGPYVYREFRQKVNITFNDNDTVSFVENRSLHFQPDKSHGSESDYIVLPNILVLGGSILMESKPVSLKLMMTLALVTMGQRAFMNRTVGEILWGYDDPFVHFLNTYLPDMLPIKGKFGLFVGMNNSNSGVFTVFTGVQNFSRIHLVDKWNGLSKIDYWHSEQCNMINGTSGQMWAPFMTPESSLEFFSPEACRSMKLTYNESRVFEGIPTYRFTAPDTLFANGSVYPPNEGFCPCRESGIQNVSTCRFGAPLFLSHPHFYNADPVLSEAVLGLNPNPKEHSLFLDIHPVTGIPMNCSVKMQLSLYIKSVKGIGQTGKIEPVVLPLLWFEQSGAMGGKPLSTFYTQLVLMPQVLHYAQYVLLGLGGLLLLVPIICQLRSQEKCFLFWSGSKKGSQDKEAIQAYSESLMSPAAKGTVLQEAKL
- Measurement Protocol: 125I-HDL binding assay
- Design: expressed in transfected cells
- Test Settings: 37° C., 1 h preincubation with compound; read-out: IC50
Test Readout: IC50 (nM)

Molecule Smiles | Test Readout | Value Reported
COCC(=O)N1CCc2cc(-c3csc(NC(=O)c4cc(OC)cc(OC)c4)n3)ccc21 | IC50 | 5.7

// data source = patent US9951055B2
